Target: Homeobox protein Hox-A13 (Mus musculus)
Assay: inhibitors of HoxA13-DNA binding, primary screen, biochemical, fluorescence polarization, labeled oligonucleotide (AID 1185)
Details: 15 min, higher = more signal, called active from +8 up or from −8 down
# z-score >= -6 gives t, anything below gives f

compound | group.label
CCCNC(=O)OC[C@H]1O[C@H](CCON=Cc2ccc(C(=O)N3[C@H](c4ccc(C)cc4)[C@@H](C)CC[C@H]3C(=O)OC)cc2)C=C[C@@H]1Oc1ccc(OC)cc1 | t
O=C(NN=C1C[C@@H](O)[C@@H](O)[C@@H]2[C@@H]3C(=O)N(C[C@@H]4CCCO4)C(=O)[C@@H]3CC[C@@H]12)OCc1ccccc1 | t
CC(CCN1CCCc2nc(C)c(C)cc21)=NOC(C)CN1CCCCc2nc(C)c(C)cc21 (configuration not stated) | f

Exam item: Quick check: does `COc1ccc(O[C@@H]2[C@H](O)CO[C@@H]2C=Cc2ccccc2)cc1` have z-score greater than or equal to -6?
Marked response: t

Exam item: Same question for `CCCCC#C[C@@H]1C=C[C@H](Oc2ccc(C(=O)OC)cc2)[C@@H](COC(=O)OCC)O1` please.
Marked response: t

Exam item: Same question for COc1ccc(O[C@H]2C=C[C@@H](c3ccccc3)O[C@@H]2COC(=O)CCC(C)=NOC(C)CN2CCCc3nc(C)c(C)cc32)cc1 (some centres not stated) please.
Marked response: t

Exam item: Same question for `CCN1C(=O)[C@@H]2[C@H]3C(=CC[C@@H]2C1=O)C1(OCCCO1)[C@H]1O[C@H]1[C@H]3O` please.
Marked response: f

Exam item: Same question for `CC[C@@H](c1ccccc1)n1c(=O)n2n(c1=O)[C@H]1[C@H](O)[C@@H]3O[C@@H]3C(=O)[C@H]1CC2` please.
Marked response: t

Exam item: Same question for `CON=C[C@@H](C)[C@H](OCc1ccccc1)C(C)C` please.
Marked response: t

Exam item: Same question for COCCNC(=O)OCC1CCCC2(CC(OC(=O)NCc3ccc4c(c3)OCO4)CC(CCC(=O)N[C@@H](C)C(=O)OC)O2)O1 (some centres not stated) please.
Marked response: f

Exam item: Same question for `O=C1C[C@@H](O)[C@@H](O)[C@@H]2[C@@H]3C(=O)N(c4cccc(Oc5ccccc5)c4)C(=O)[C@@H]3CC[C@H]12` please.
Marked response: t

Exam item: Same question for CCOC(=O)[C@H](CC(C)C)NC(=O)CCC1CC(OC(=O)NCc2ccc3c(c2)OCO3)CC2(CCCC(COC(=O)NCC(c3ccccc3)c3ccccc3)O2)O1 (some centres not stated) please.
Marked response: f
